I'd be grateful if you could share measured combination Emax for these entries.
test system: EW-24 (Ewing's Sarcoma); experiment: combination Emax (second highest fraction inhibited in the dose matrix, 72 h); higher = more inhibition; extreme values may be limits of the assay
Quick one: just the number, no unit, thanks!

Lookup: Fill in the recorded combination Emax for this compound, with EW-24 (Ewing's Sarcoma) as test system: O=C(c1cc(Cc2n[nH]c(=O)c3ccccc23)ccc1F)N1CCN(C(=O)C2CC2)CC1 [Olaparib] + CN(CC[C@H](CSC1=CC=CC=C1)NC2=C(C=C(C=C2)S(=O)(=O)NC(=O)C3=CC=C(C=C3)N4CCC(CC4)[C@H](C5=CC=CC=C5C6=CC=C(C=C6)Cl)O)S(=O)(=O)C(F)(F)F)CCO [AZD4320] (first compound max 10 µM, 7x7, partner max 1 µM)
Found: 0.606

Lookup: Similarly, CCN(CCO)CCCOc1ccc2c(Nc3cc(CC(=O)Nc4cccc(F)c4)[nH]n3)ncnc2c1 [AZD2811] + O=C(c1cc(Cc2n[nH]c(=O)c3ccccc23)ccc1F)N1CCN(C(=O)C2CC2)CC1 [Olaparib] (first compound max 1 µM, 7x7, partner max 10 µM) ?
Found: 0.337

Lookup: Do the same for NC1(C(=O)N[C@@H](CCO)c2ccc(Cl)cc2)CCN(c2ncnc3[nH]ccc23)CC1 [Capivasertib] + CC(C)n1c(=O)n(C)c2cnc3cc(F)c(-c4ccc(OCCCN5CCCCC5)nc4)cc3c21 [AZD1390] (first compound max 10 µM, 7x7, partner max 0.3 µM) please
Found: 0.407

* * *

system: RF-48 (B-Cell Non-Hodgkin's Lymphoma); assay: Bliss excess, mean over the matrix (fraction); higher = more synergy
Short version: Bliss excess at least -0.01 is condition met, less is condition not met.

Lookup: // inclusive: Bliss excess at least -0.01? input: C[C@@H]1COCCN1c1cc(C2([S@](C)(=N)=O)CC2)nc(-c2ccnc3[nH]ccc23)n1 [AZD6738] + O=C(c1cc(Cc2n[nH]c(=O)c3ccccc23)ccc1F)N1CCN(C(=O)C2CC2)CC1 [Olaparib] (first compound max 10 µM, 7x7, partner max 10 µM)
Found: condition not met

Lookup: Can you check CCN(CCO)CCCOc1ccc2c(Nc3cc(CC(=O)Nc4cccc(F)c4)[nH]n3)ncnc2c1 [AZD2811] + C[C@@H]1COCCN1C2=NC(=NC(=C2)C3(CC3)[S@](=N)(=O)C)C4=C5C=CNC5=NC=C4 [AZD6738] (first compound max 1 µM, 7x7, partner max 10 µM) next?
Found: condition not met

Lookup: Consider next the compound Cc1cc2ncnn2cc1Nc1ncc2c(n1)n(C1CCOCC1)c(=O)n2C [AZD7648] + C=CCn1c(=O)c2cnc(Nc3ccc(N4CCN(C)CC4)cc3)nc2n1-c1cccc(C(C)(C)O)n1 [AZD1775] (first compound max 10 µM, partner max 1 µM) in the same way.
Found: condition met

Lookup: Let us now turn to Cc1c2c(nn1C)CSCc1cc(n(C)n1)CSc1cc(c3ccccc3c1)OCCCc1c(C(=O)O)n(C)c3c-2c(Cl)ccc13 [AZD5991] + C[C@@H]1COCCN1C2=NC(=NC(=C2)C3(CC3)[S@](=N)(=O)C)C4=C5C=CNC5=NC=C4 [AZD6738] (first compound max 1 µM, 7x7, partner max 10 µM)
Found: condition met

Lookup: Could you do the same for Cc1c2c(nn1C)CSCc1cc(n(C)n1)CSc1cc(c3ccccc3c1)OCCCc1c(C(=O)O)n(C)c3c-2c(Cl)ccc13 [AZD5991] + CC(=O)O[C@H]1C(=O)[C@@]2(C)[C@H]([C@H](OC(=O)c3ccccc3)[C@]3(O)C[C@H](OC(=O)[C@H](O)[C@@H](NC(=O)c4ccccc4)c4ccccc4)C(C)=C1C3(C)C)[C@]1(OC(C)=O)CO[C@@H]1C[C@@H]2O [Paclitaxel] (first compound max 1 µM, 7x7, partner max 3 µM) , please?
Found: condition not met

Lookup: Here is the next compound: Cc1cc2ncnn2cc1Nc1ncc2c(n1)n(C1CCOCC1)c(=O)n2C [AZD7648] + CN(C)CCCOc1ccc(-c2ccc3ncc4c(c3c2)n(C2CCOCC2)c(=O)n4C)cn1 [AZD0156] (first compound max 10 µM, 7x7, partner max 1 µM)
Found: condition not met

Lookup: Please answer likewise for CC(=O)c1c(C)c2cnc(Nc3ccc(N4CCNCC4)cn3)nc2n(C2CCCC2)c1=O [Palbociclib] + Cn1cnc2c(F)c(Nc3ccc(Br)cc3Cl)c(C(=O)NOCCO)cc21 [Selumetinib] (first compound max 10 µM, 7x7, partner max 10 µM)
Found: condition not met

Lookup: // next record COc1cccc(OCCCN)c1-c1cc(Nc2cnc(C#N)cn2)n[nH]1 [Prexasertib] + C[C@@H]1COCCN1C2=NC(=NC(=C2)C3(CC3)[S@](=N)(=O)C)C4=C5C=CNC5=NC=C4 [AZD6738] (first compound max 1 µM, 7x7, partner max 10 µM)
Found: condition not met

Lookup: Repeat for the following compound: COc1nnc2ccc(N3CCC(c4ccc(OCCN5CCN(C)C(=O)[C@H]5C)cc4)CC3)nn12 [AZD5153] + C=CCn1c(=O)c2cnc(Nc3ccc(N4CCN(C)CC4)cc3)nc2n1-c1cccc(C(C)(C)O)n1 [AZD1775] (first compound max 1 µM, partner max 1 µM)
Found: condition not met

Lookup: Same for COc1cccc(OCCCN)c1-c1cc(Nc2cnc(C#N)cn2)n[nH]1 [Prexasertib] + CCc1c2c(nc3ccc(O)cc13)-c1cc3c(c(=O)n1C2)COC(=O)[C@]3(O)CC [SN-38] (first compound max 1 µM, 7x7, partner max 0.3 µM)
Found: condition not met

Lookup: Again, but for CC1(C)CCC(CN2CCN(c3ccc(C(=O)NS(=O)(=O)c4ccc(NCC5CCOCC5)c([N+](=O)[O-])c4)c(Oc4cnc5[nH]ccc5c4)c3)CC2)=C(c2ccc(Cl)cc2)C1 [Venetoclax] + C[C@@H](Nc1cc(F)cc(F)c1)c1cc(C(=O)N(C)C)cc2c(=O)cc(N3CCOCC3)oc12 [AZD8186] (first compound max 1 µM, 7x7, partner max 3 µM)
Found: condition met

Lookup: What about this compound? CN(CCO)CC[C@H](CSc1ccccc1)Nc1ccc(S(=O)(=O)NC(=O)c2ccc(N3CCC([C@@H](O)c4ccccc4-c4ccc(Cl)cc4)CC3)cc2)cc1S(=O)(=O)C(F)(F)F [AZD4320] + CCN(CCO)CCCOc1ccc2c(Nc3cc(CC(=O)Nc4cccc(F)c4)[nH]n3)ncnc2c1 [AZD2811] (first compound max 1 µM, 7x7, partner max 1 µM)
Found: condition met

Lookup: Could you do the same for O=C(c1cc(Cc2n[nH]c(=O)c3ccccc23)ccc1F)N1CCN(C(=O)C2CC2)CC1 [Olaparib] + CC1(C)CCC(CN2CCN(c3ccc(C(=O)NS(=O)(=O)c4ccc(NCC5CCOCC5)c([N+](=O)[O-])c4)c(Oc4cnc5[nH]ccc5c4)c3)CC2)=C(c2ccc(Cl)cc2)C1 [Venetoclax] (first compound max 10 µM, 7x7, partner max 1 µM) , please?
Found: condition met

* * *

Record form. Attribute: Bliss excess. Fill in for each entry.
test system: MIA-PaCa-2 (Pancreatic Carcinoma); experiment: Bliss excess, mean over the matrix (fraction); higher = more synergy
Response field accepts a number only; no unit should be typed.

Lookup: Tell me reported Bliss excess for C=CCn1c(=O)c2cnc(Nc3ccc(N4CCN(C)CC4)cc3)nc2n1-c1cccc(C(C)(C)O)n1 [AZD1775] + O=C(c1cc(Cc2n[nH]c(=O)c3ccccc23)ccc1F)N1CCN(C(=O)C2CC2)CC1 [Olaparib] (first compound max 1 µM, partner max 10 µM) , tested with MIA-PaCa-2 (Pancreatic Carcinoma).
Found: -0.0344

Lookup: And the next one, Cc1cc2ncnn2cc1Nc1ncc2c(n1)n(C1CCOCC1)c(=O)n2C [AZD7648] + COc1cc([C@@H]2c3cc4c(cc3[C@@H](O[C@@H]3O[C@@H]5CO[C@@H](C)O[C@H]5[C@H](O)[C@H]3O)[C@H]3COC(=O)[C@H]23)OCO4)cc(OC)c1O [Etoposide] (first compound max 10 µM, 7x7, partner max 10 µM) ?
Found: 0.05

Lookup: Please answer likewise for CCN(CCO)CCCOc1ccc2c(Nc3cc(CC(=O)Nc4cccc(F)c4)[nH]n3)ncnc2c1 [AZD2811] + O=C(c1cc(Cc2n[nH]c(=O)c3ccccc23)ccc1F)N1CCN(C(=O)C2CC2)CC1 [Olaparib] (first compound max 1 µM, 7x7, partner max 10 µM)
Found: 0.0461

Lookup: What do we get for COc1cc2c(cc1OCCCCCOc1cc3c(cc1OC)C(=O)N1C=C(C)C[C@H]1C=N3)N=C[C@@H]1CC(C)=CN1C2=O [SG3199] + O=C(c1cc(Cc2n[nH]c(=O)c3ccccc23)ccc1F)N1CCN(C(=O)C2CC2)CC1 [Olaparib] (first compound max 0.001 µM, 7x7, partner max 10 µM) ?
Found: -0.0415

Lookup: Another compound to look at: O=C(c1cc(Cc2n[nH]c(=O)c3ccccc23)ccc1F)N1CCN(C(=O)C2CC2)CC1 [Olaparib] + Cc1c2c(nn1C)CSCc1cc(n(C)n1)CSc1cc(c3ccccc3c1)OCCCc1c(C(=O)O)n(C)c3c-2c(Cl)ccc13 [AZD5991] (first compound max 10 µM, 7x7, partner max 1 µM)
Found: -0.0205

Lookup: Note, next up: CN(C)CCCOc1ccc(-c2ccc3ncc4c(c3c2)n(C2CCOCC2)c(=O)n4C)cn1 [AZD0156] + CCN(CCO)CCCOc1ccc2c(Nc3cc(CC(=O)Nc4cccc(F)c4)[nH]n3)ncnc2c1 [AZD2811] (first compound max 1 µM, 7x7, partner max 1 µM)
Found: 0.0369

Lookup: Record: COc1cccc(OCCCN)c1-c1cc(Nc2cnc(C#N)cn2)n[nH]1 [Prexasertib] + C[C@@H]1COCCN1C2=NC(=NC(=C2)C3(CC3)[S@](=N)(=O)C)C4=C5C=CNC5=NC=C4 [AZD6738] (first compound max 1 µM, 7x7, partner max 10 µM)
Found: -0.105

Source listed as the supplement of paper PMC11061612.
